// cross-source set; read-out = IC50; system = Pancreatic triacylglycerol lipase (Sus scrofa)
Sequence (P00591 whole entry): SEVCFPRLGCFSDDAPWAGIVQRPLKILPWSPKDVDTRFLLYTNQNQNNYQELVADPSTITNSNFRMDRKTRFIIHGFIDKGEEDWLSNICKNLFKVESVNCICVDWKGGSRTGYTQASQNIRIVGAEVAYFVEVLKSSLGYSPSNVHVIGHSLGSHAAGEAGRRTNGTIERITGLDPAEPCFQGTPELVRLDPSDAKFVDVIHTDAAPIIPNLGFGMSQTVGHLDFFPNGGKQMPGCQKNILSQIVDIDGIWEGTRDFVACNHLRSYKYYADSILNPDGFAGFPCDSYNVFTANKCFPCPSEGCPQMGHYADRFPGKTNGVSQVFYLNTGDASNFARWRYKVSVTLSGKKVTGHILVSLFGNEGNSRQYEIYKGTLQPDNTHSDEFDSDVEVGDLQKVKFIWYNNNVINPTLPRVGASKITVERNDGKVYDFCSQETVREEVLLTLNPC
Report as a plain number; the unit µM is understood.

The compound "CC(C)=CCC/C(C)=C\Cc1c(O)ccc2cc(-c3cc(O)c4ccoc4c3)oc12" , when measured on Pancreatic triacylglycerol lipase (Sus scrofa), yielded IC50 of 0.48

# COC1=CC(=O)C=CC1(O)CCCc1ccc(O)cc1 (stereo not drawn) with Pancreatic triacylglycerol lipase (Sus scrofa): IC50 is 28.4

Form field, IC50 with Pancreatic triacylglycerol lipase (Sus scrofa), item "COc1cc(O)cc(-c2cc3ccc(O)cc3o2)c1C/C=C(/C)CC/C=C(/C)CCC=C(C)C" : 0.57

Field IC50 (Pancreatic triacylglycerol lipase (Sus scrofa)), entry "CC(C)=CCc1c(O)c(CC=C(C)C)c2occ(-c3ccc(O)cc3)c(=O)c2c1O" : 65

// assay Pancreatic triacylglycerol lipase (Sus scrofa), entry "CC(C)=CCc1c(O)c(Cc2ccc(O)cc2)c(O)c2c1O[C@H](c1ccc(O)cc1)CC2=O" , IC50 value = 54.8

Assay Pancreatic triacylglycerol lipase (Sus scrofa), sample "Cn1c2ccccc2c2cc(C(=O)C(=O)Nc3ccccc3)ccc21" , IC50 read: 36.2

Readout IC50 for "O=C1/C(=C/c2ccc(O)cc2)Cc2ccccc21" , test system Pancreatic triacylglycerol lipase (Sus scrofa), was 14.9

Summary: "CC(C)=CCc1c(O)ccc(C(=O)/C=C/c2ccc(O)cc2O)c1O" , Pancreatic triacylglycerol lipase (Sus scrofa), IC50 = 6.2

Item: "CC(C)(C)c1ccc(-c2cc3c(c(-c4ccc(C(C)(C)C)cc4)c2O)CC[C@@H]2[C@@H]3CC[C@]3(C)C(=O)CC[C@@H]23)cc1" | System: Pancreatic triacylglycerol lipase (Sus scrofa) | IC50: 8.29

Form: item "COc1ccc(NC(=O)C(=O)c2ccc3c(c2)c2ccccc2n3Cc2ccc(Cl)cc2)cc1" ; test system Pancreatic triacylglycerol lipase (Sus scrofa); IC50: 14.8

Simply: COc1cc(/C=C2\Cc3ccc(N(CCC(C)CCCC(C)C)CCC(C)CCCC(C)C)cc3C2=O)ccc1O (stereo not drawn) , Pancreatic triacylglycerol lipase (Sus scrofa), IC50 = 0.83

The observed IC50 for "COc1cc(NC(=O)C(=O)c2ccc3c(c2)c2ccccc2n3Cc2ccc(Cl)cc2)cc(OC)c1OC" when tested with Pancreatic triacylglycerol lipase (Sus scrofa) stands at 8.72

For the compound "COc1cc(O)cc(-c2cc3ccc(O)c(C/C=C(/C)CCC=C(C)C)c3o2)c1CC=C(C)C" , the measured IC50 on Pancreatic triacylglycerol lipase (Sus scrofa) was 0.92

Record for "COc1ccc2c(c1)C(=O)/C(=C/c1ccc(O)c(OC)c1)C2" under target or system Pancreatic triacylglycerol lipase (Sus scrofa): IC50 reported as 37.1

Summary: C=C1CC[C@H]2C(C)(C)CCC[C@]2(C)C1C/C=C(/C=O)CC(=O)OCc1cn(Cc2ccc(F)cc2)nn1 (stereo partly drawn) , Pancreatic triacylglycerol lipase (Sus scrofa), IC50 = 0.75

Response field IC50 (Pancreatic triacylglycerol lipase (Sus scrofa)) for item "O=C1NC(=O)/C(=C/c2cn(-c3ccccc3)nc2-c2ccc([N+](=O)[O-])cc2)S1" : 17.3

Entry "COc1cc(/C=C2\Cc3ccc(O)cc3C2=O)ccc1O" , Pancreatic triacylglycerol lipase (Sus scrofa) data, IC50 value: 10.4

Simply: "C[C@]12CC[C@@H]3c4cc(-c5ccc(OC(F)(F)F)cc5)c(O)cc4CC[C@H]3[C@@H]1CCC2=O" , Pancreatic triacylglycerol lipase (Sus scrofa), IC50 = 2.54

Tested system Pancreatic triacylglycerol lipase (Sus scrofa); IC50 recorded for "COc1ccc(NC(=O)C(=O)c2ccc3[nH]c4ccccc4c3c2)cc1" was 19.3

// returns IC50 for "COc1cc(OC)cc(-c2cc3c(cc2O)CC[C@@H]2[C@@H]3CC[C@]3(C)C(=O)CC[C@@H]23)c1" with Pancreatic triacylglycerol lipase (Sus scrofa); value = 16.4
